Can you tell me IC50 for the items I'm about to list?
Test system: HCT-116
assay-info: Cytotoxicity against human HCT-116 incubated for 24 hrs by CCK-8 assay
Type: functional, cell-based
reported-conditions: HCT-116, 24 h
Give the number; µM is assumed, so skip it.

// sample O=C1C=CCCN1C(=O)/C=C/c1ccccc1-c1c[nH]cn1 , its IC50 was 0.55

Lookup result for COc1cc(/C=C/C(=O)N2CCC=CC2=O)cc(OC)c1OC ; measured IC50: 6.38

* * *

target-of-assay: Indoleamine 2,3-dioxygenase 1 (Homo sapiens)
assay-info: Inhibition of IDO1 (unknown origin) using L-tryptophan as substrate incubated for 10 mins
reported-metric: pIC50
Scale explanation: pIC50 corresponds to minus log10 of a concentration expressed in moles per litre.

# pIC50 (compound: Cc1ccc2c(c1CCC(=O)NCCCCCC(=O)CNc1ccccc1N)C(=O)C(=O)C(C(C)C)=C2 ) is 6.14

* * *

Would you mind telling me the reported pIC50 of each entry?
target-of-assay: Indoleamine 2,3-dioxygenase 1 (Homo sapiens)
assay-info: Inhibition of recombinant N-terminal His tagged IDO1 (unknown origin) expressed in Escherichia coli incubated for 1.5 hrs by FULOstar OMEGA plate reader method
Would you please state pIC50, meaning minus log10 of the concentration in mol/L, as a bare number?

Recorded result, Cn1cc(-c2ccc(NC(N)=O)cc2)c2ccc(F)cc21 , pIC50: 7.31

For record O[C@@H](c1cn2cncc2cc1Cl)C1CCCCC1 the listed pIC50 is 8.02

* * *

target-of-assay: Indoleamine 2,3-dioxygenase 1 (Homo sapiens, UniProt P14902)
Sequence (P14902 whole entry): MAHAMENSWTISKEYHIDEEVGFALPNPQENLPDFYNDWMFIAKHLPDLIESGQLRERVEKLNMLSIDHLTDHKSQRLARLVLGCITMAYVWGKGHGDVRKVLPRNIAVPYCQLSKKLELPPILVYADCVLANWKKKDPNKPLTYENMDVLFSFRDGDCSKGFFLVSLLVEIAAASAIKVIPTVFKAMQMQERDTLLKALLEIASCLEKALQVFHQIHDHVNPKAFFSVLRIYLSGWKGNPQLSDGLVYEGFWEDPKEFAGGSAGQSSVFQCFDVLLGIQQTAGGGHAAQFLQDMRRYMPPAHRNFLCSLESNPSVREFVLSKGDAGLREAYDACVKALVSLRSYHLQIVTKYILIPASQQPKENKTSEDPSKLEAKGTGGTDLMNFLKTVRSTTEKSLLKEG
assay-info: Inhibition of human recombinant IDO1 in human HeLa cells incubated for 48 hrs
Assay type: cell-based
reported-metric: pEC50
Please keep in mind that pEC50 is minus log10 of the molar concentration; only the number is needed.

The value of pEC50 measured for the molecule O=C(NCCNc1nonc1/C(=N/O)Nc1ccc(F)c(Br)c1)c1cccc(N(CCCl)CCCl)c1 turned out to be 6.57

* * *

target-of-assay: Tryptophan 2,3-dioxygenase (Homo sapiens)
Sequence (P48775 whole entry): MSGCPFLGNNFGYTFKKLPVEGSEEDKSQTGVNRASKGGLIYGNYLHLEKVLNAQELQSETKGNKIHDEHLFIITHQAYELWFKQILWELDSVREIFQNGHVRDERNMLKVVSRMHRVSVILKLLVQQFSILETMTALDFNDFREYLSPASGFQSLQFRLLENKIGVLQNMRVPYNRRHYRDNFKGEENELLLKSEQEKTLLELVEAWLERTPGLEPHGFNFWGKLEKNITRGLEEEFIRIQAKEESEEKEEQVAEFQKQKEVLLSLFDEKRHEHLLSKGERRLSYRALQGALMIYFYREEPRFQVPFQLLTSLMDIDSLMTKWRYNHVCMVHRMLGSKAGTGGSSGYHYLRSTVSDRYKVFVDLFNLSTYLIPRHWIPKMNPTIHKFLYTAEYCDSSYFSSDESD
assay-info: Inhibition of recombinant C-terminal His tagged TDO (unknown origin) expressed in Escherichia coli
reported-metric: IC50 (nM)
Report as a plain number; the unit nM is understood.

The molecule listed as Cn1cc(-c2ccc(NC(N)=O)cc2)c2ccc(F)cc21 has a reported IC50 of 78

Noted for O[C@@H](c1cn2cncc2cc1Cl)C1CCCCC1 : its IC50 reads 29

* * *

target-of-assay: Indoleamine 2,3-dioxygenase 1 (Homo sapiens, UniProt P14902)
assay-info: Inhibition of IDO1 in human BT-549 cells
Format: cell-based
reported-conditions: pooled result: one value given for 2 cell lines, strains, targets or settings
reported-metric: IC50 (µM)
Supply the numeric figure in µM, leaving out any unit text.

For reference, reported IC50 for Cc1ccc(C(=O)CC(=O)c2ccccc2OC(C)C)c(O)c1 stands at 10.8

response.value for COc1ccccc1C(=O)CC(=O)c1ccc(C)cc1O (field: IC50) = 20.6

* * *

assay-info: Clearance in Sprague-Dawley rat plasma
Type: ADME, cell-free
reported-metric: clearance (mL/min/kg)
Could you give me the number in mL/min/kg? Just the number is fine.

Query OCCOCc1cn(CCNc2nonc2/C(=N/O)Nc2ccc(F)c(Br)c2)nn1 yields clearance of 27.5

* * *

target-of-assay: UniProtKB P14902
assay-info: Inhibition of IDO1 in human HeLa cells
Format: cell-based
reported-metric: pEC50
Hey, just a heads up that pEC50 is the negative log base 10 of the concentration in molar.

Record O=C1C=CCCN1C(=O)/C=C/c1ccccc1-c1c[nH]cn1 , field pEC50: 5.85
